tested on: S. aureus JE2 USA 300; experiment: MIC/MBC microbroth dilution (EUCAST); assay type: cell-based; settings: Staphylococcus aureus, USA300, S. aureus JE2 USA 300
measured attribute: MBC (µg/mL)
Numbers only, in µg/mL.

[[record]]
molecule = "O=C(Nc1ccc(N2CCNCC2)cc1)c1ccccc1Oc1ccccc1 [Compound 64]"
measured_attribute = "MBC"
number = 64

[[record]]
molecule = "O=C(Nc1ccc(N2CCNCC2)cc1)c1cccc(C(F)(F)F)c1Sc1ccc(F)cc1 [Compound 62]"
measured_attribute = "MBC"
number = 128

[[record]]
molecule = "Nc1cccc(C(=O)Nc2ccc(N3CCNCC3)cc2)c1Oc1ccc(F)cc1 [Compound 65]"
measured_attribute = "MBC"
number = 256

[[record]]
molecule = "O=C(Nc1ccc(N2CCNCC2)cc1)c1cccc(C(F)(F)F)c1Oc1ccc(F)cc1 [Compound 57]"
measured_attribute = "MBC"
number = 128

[[record]]
molecule = "O=C(Nc1ccc(N2CCNCC2)cc1)c1cccc(C(F)(F)F)c1Oc1ccccc1 [Compound 58]"
measured_attribute = "MBC"
number = 128


Working through the 2 molecules below one at a time, give MBC for each.
1. O=C(Nc1ccc(N2CCNCC2)cc1)c1ccccc1Oc1ccc(F)cc1 [Compound 59]
2. O=C(Nc1cccc(N2CCNCC2)c1)c1cccc(C(F)(F)F)c1Oc1ccc(F)cc1 [Compound 56]

[128, 256]
